MEASUREMENT_TARGET: recombinant human secreted phospholipase A2 (Homo sapiens, UniProt P14555)
Sequence (P14555 21-144): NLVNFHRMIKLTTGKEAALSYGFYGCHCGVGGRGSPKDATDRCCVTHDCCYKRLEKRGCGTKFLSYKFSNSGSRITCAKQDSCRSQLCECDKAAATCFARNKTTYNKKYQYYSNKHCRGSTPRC
PROTOCOL_DESCRIPTION: chromogenic assay of recombinant human secreted phospholipase A2
Type: biochemical
SETUP_CONDITIONS: diheptanoyl thio-PC substrate, pH 7.5, 40° C. for 30 minutes, absorbance at 405 nanometers, triplicate
Procedure: The following chromogenic assay procedure was used to identify and evaluate inhibitors of recombinant human secreted phospholipase A2. The assay described herein has been adapted for high volume screening using 96 well microtiter plates. […] A measured volume of racemic dipheptanoyl thio PC supplied in chloroform at a concentration of 100 mg/ml is taken to dryness and redissolved in 10 millimolar TRITON X-100™ nonionic detergent aqueous solution. […]
READOUT: IC50 (µM)
The response must be a number in µM with no trailing unit.

Request - read-out IC50 | tested on recombinant human secreted phospholipase A2 (Homo sapiens, UniProt P14555) | compound NC(=O)C1CCc2c1c1c(OCC(=O)O)cccc1n2Cc1ccccc1 (stereo not shown) [Example 1]
0.046
